Consider the following compounds; for each one, report its [0]222obs × 10^−3, Phos + TFE.
assay: Circular dichroism spectroscopy (helical content); format: physicochemical; settings: 20 μM peptide, 50 mM phosphate buffer with trifluoroethanol (20%)
Square brackets hold non-standard residues; d marks the D form. Peptide text beside a SMILES is read from it. hArg = N=C(N)NCCCC[C@H](N)C(=O)O; Aib = CC(C)(N)C(=O)O
Numbers only.

Some compounds with known [0]222obs × 10^−3, Phos + TFE results, for comparison:
[
  {
    "compound": "CC[C@H](C)[C@H](NC(=O)[C@H](CCC(=O)O)NC(=O)[C@H](C)NC(=O)[C@@H](NC(=O)[C@H](C)N)C(C)C)C(=O)N[C@@H](CCC(N)=O)C(=O)N[C@@H](CC(C)C)C(=O)N[C@@H](CCSC)C(=O)N[C@@H](Cc1c[nH]cn1)C(=O)N[C@@H](CCC(N)=O)C(=O)N[C@@H](CCCCNC(=N)N)C(=O)N[C@@H](C)C(=O)N[C@@H](CCCCN)C(=O)N[C@@H](Cc1c[nH]c2ccccc12)C(N)=O [[M]PTH(1-14), reference compound] (H-AVAEIQLMHQ[hArg]AKW-NH2)",
    "value reported": "−11.9"
  },
  {
    "compound": "CC[C@H](C)[C@H](NC(=O)[C@H](CCC(=O)O)NC(=O)C(C)(C)NC(=O)[C@@H](NC(=O)C(C)(C)N)C(C)C)C(=O)N[C@@H](CCC(N)=O)C(=O)N[C@@H](CC(C)C)C(=O)N[C@@H](CCSC)C(=O)N[C@@H](Cc1c[nH]cn1)C(=O)N[C@@H](CCC(N)=O)C(N)=O [[Aib^1,3,M]PTH(1-10), [Aib^1,3,Gln^10]PTH(1-10)] (H-[Aib]V[Aib]EIQLMHQ-NH2)",
    "value reported": "−13.1"
  },
  {
    "compound": "CC[C@H](C)[C@H](NC(=O)[C@H](CCC(=O)O)NC(=O)C(C)(C)NC(=O)[C@@H](NC(=O)C(C)(C)N)C(C)C)C(=O)N[C@@H](CCC(N)=O)C(=O)N[C@@H](CC(C)C)C(=O)N[C@@H](CCSC)C(=O)N[C@@H](Cc1c[nH]cn1)C(=O)N[C@@H](CCC(N)=O)C(=O)N[C@@H](CCCCNC(=N)N)C(N)=O [[Aib^1,3,M]PTH(1-11), AibValAibGluIleGlnLeuMetHisGlnHar] (H-[Aib]V[Aib]EIQLMHQ[hArg]-NH2)",
    "value reported": "−16.1"
  }
]

Lab note: next compound to report on.
Query :: Data request, read-out [0]222obs × 10^−3, Phos + TFE, for CC[C@H](C)[C@H](NC(=O)[C@H](CCC(=O)O)NC(=O)C(C)(C)NC(=O)[C@@H](NC(=O)C(C)(C)N)C(C)C)C(=O)N[C@@H](CCC(N)=O)C(=O)N[C@@H](CC(C)C)C(=O)N[C@@H](CCSC)C(=O)N[C@@H](Cc1c[nH]cn1)C(=O)N[C@@H](CCC(N)=O)C(=O)N[C@@H](CCCCNC(=N)N)C(=O)N[C@@H](C)C(=O)N[C@@H](CCCCN)C(=O)N[C@@H](Cc1c[nH]c2ccccc12)C(N)=O [[Aib^1,3,M]PTH(1-14)] (H-[Aib]V[Aib]EIQLMHQ[hArg]AKW-NH2)
Result :: −15.7
